System: MDA-MB-468 spheroids with HUVEC/MSC, viability
Test method notes: Anticancer human tumor MDA-MB-468 cell line growth inhibition [PI3K];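 also: spheroids exposed to agents for seven days before readout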
Condition description: curve of first compound; second compound 0.1 µM
pIC50: −log10 of the molar value.
Reported pIC50 by item:

{"columns": ["Compound", "pIC50"],
 "data": [
  ["CNC(=O)c1ccc(N2C(=S)N(c3ccc(C#N)c(C(F)(F)F)c3)C(=O)C2(C)C)cc1F + Cc1nc(NC(=O)N2CCCC2C(N)=O)sc1-c1ccnc(C(C)(C)C(F)(F)F)c1", "< 5.00"],
  ["CC1(C)CCC(Nc2ncc(C(F)(F)F)c(-c3c[nH]c4c(P(C)(C)=O)c(C#N)ccc34)n2)CN1 (stereo not drawn) + CC(Nc1ccc2c(c1)OCCn1cc(N3C(=O)OCC3C(F)F)nc1-2)C(N)=O", "> 7.50"],
  ["C[C@@H](NC(=O)c1ncnc(N)c1Cl)c1ncc(C(=O)Nc2cc(C(F)(F)F)c(Cl)cn2)s1 + CC(Nc1ncnc2nc[nH]c12)c1cc2cccc(Cl)c2c(=O)n1-c1ccccc1", "< 5.00"]
]}

---

Tested on: MDA-MB-468 spheroids with HUVEC/MSC, viability
Test method notes: Anticancer human tumor MDA-MB-468 cell line growth inhibition [PI3K];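 also: spheroids exposed to agents for seven days before readout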;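 as to viability, T/C: 100% = DMSO vehicle control viability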
Condition description: second compound 0.316 µM; first compound 10 µM; stronger effect = lower value
Item-by-item account of viability, T/C

{"columns": ["Compound", "Unit info", "viability, T/C"],
 "data": [
  ["CNC(=O)c1ccc(N2C(=S)N(c3ccc(C#N)c(C(F)(F)F)c3)C(=O)C2(C)C)cc1F + CC(Nc1ccc2c(c1)OCCn1cc(N3C(=O)OCC3C(F)F)nc1-2)C(N)=O", "%", 57.1],
  ["CC1(C)CCC(CN2CCN(c3ccc(C(=O)NS(=O)(=O)c4ccc(NCC5CCOCC5)c([N+](=O)[O-])c4)c(Oc4cnc5[nH]ccc5c4)c3)CC2)=C(c2ccc(Cl)cc2)C1 + CC(Nc1ncnc2nc[nH]c12)c1cc2cccc(Cl)c2c(=O)n1-c1ccccc1", "%", 17.2],
  ["CCCS(=O)(=O)Nc1ccc(F)c(C(=O)c2c[nH]c3ncc(-c4ccc(Cl)cc4)cc23)c1F + CC(Nc1ncnc2nc[nH]c12)c1cc2cccc(Cl)c2c(=O)n1-c1ccccc1", "%", 14],
  ["Cn1ncc(Cl)c1-c1cc(C(=O)NC(CN)Cc2cccc(F)c2)sc1Cl (stereo not given) + COc1c(OCCCN2CCOCC2)ccc2c3n(c(=NC(=O)c4cnc(N)nc4)nc12)CCN3", "%", 4.16],
  ["CC1(C)CCC(Nc2ncc(C(F)(F)F)c(-c3c[nH]c4c(P(C)(C)=O)c(C#N)ccc34)n2)CN1 (stereo not given) + CC(Nc1ccc2c(c1)OCCn1cc(N3C(=O)OCC3C(F)F)nc1-2)C(N)=O", "%", 1.12]
]}

---

IC50 by entry:
Tested on: MDA-MB-468 spheroids with HUVEC/MSC, viability
Test method notes: Anticancer human tumor MDA-MB-468 cell line growth inhibition [PI3K];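 also: spheroids exposed to agents for seven days before readout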
Condition description: curve of first compound; second compound 0.1 µM
Readout kind: IC50

{"columns": ["Molecule", "Result"],
 "data": [
  ["C[C@@H](NC(=O)c1ncnc(N)c1Cl)c1ncc(C(=O)Nc2cc(C(F)(F)F)c(Cl)cn2)s1 + CC(Nc1ccc2c(c1)OCCn1cc(N3C(=O)OCC3C(F)F)nc1-2)C(N)=O", "> 10 µM"],
  ["CC(Cn1ccc(-c2ccc(C#N)c(Cl)c2)n1)NC(=O)c1cc(C(C)O)[nH]n1 (stereo not given) + CC(Nc1ccc2c(c1)OCCn1cc(N3C(=O)OCC3C(F)F)nc1-2)C(N)=O", "> 10 µM"],
  ["Cn1cnc2c(F)c(Nc3ccc(Br)cc3Cl)c(C(=O)NOCCO)cc21 + CC(Nc1ncnc2nc[nH]c12)c1cc2cccc(Cl)c2c(=O)n1-c1ccccc1", "> 3 µM"],
  ["Cn1cnc2c(F)c(Nc3ccc(Br)cc3Cl)c(C(=O)NOCCO)cc21 + CC(Nc1ccc2c(c1)OCCn1cc(N3C(=O)OCC3C(F)F)nc1-2)C(N)=O", "> 3 µM"],
  ["Cn1ncnc1[C@H]1c2n[nH]c(=O)c3cc(F)cc(c23)N[C@@H]1c1ccc(F)cc1 + CC(Nc1ncnc2nc[nH]c12)c1cc2cccc(Cl)c2c(=O)n1-c1ccccc1", "> 0.1 µM"],
  ["CNC(=O)c1ccc(N2C(=S)N(c3ccc(C#N)c(C(F)(F)F)c3)C(=O)C2(C)C)cc1F + CC(Nc1ncnc2nc[nH]c12)c1cc2cccc(Cl)c2c(=O)n1-c1ccccc1", "> 10 µM"],
  ["Cn1ncc(Cl)c1-c1cc(C(=O)NC(CN)Cc2cccc(F)c2)sc1Cl (stereo not given) + CC(Nc1ncnc2nc[nH]c12)c1cc2cccc(Cl)c2c(=O)n1-c1ccccc1", "0.338 µM"],
  ["C#Cc1c(F)ccc2cc(O)cc(-c3ncc4c(N5CC6CCC(C5)N6)nc(OCC56CCCN5CC(F)C6)nc4c3F)c12 (stereo not given) + COc1c(OCCCN2CCOCC2)ccc2c3n(c(=NC(=O)c4cnc(N)nc4)nc12)CCN3", "3.67 µM"],
  ["CNC(=O)c1ccc(N2C(=S)N(c3ccc(C#N)c(C(F)(F)F)c3)C(=O)C2(C)C)cc1F + COc1c(OCCCN2CCOCC2)ccc2c3n(c(=NC(=O)c4cnc(N)nc4)nc12)CCN3", "> 10 µM"],
  ["C=CC(=O)N1CCN(c2nc(=O)n(-c3c(C)ccnc3C(C)C)c3nc(-c4c(O)cccc4F)c(F)cc23)C(C)C1 (stereo not given) + COc1c(OCCCN2CCOCC2)ccc2c3n(c(=NC(=O)c4cnc(N)nc4)nc12)CCN3", "> 10 µM"],
  ["Cn1ncc(Cl)c1-c1cc(C(=O)NC(CN)Cc2cccc(F)c2)sc1Cl (stereo not given) + CC(Nc1ccc2c(c1)OCCn1cc(N3C(=O)OCC3C(F)F)nc1-2)C(N)=O", "0.229 µM"],
  ["CCN1CCN(Cc2ccc(Nc3ncc(F)c(-c4cc(F)c5nc(C)n(C(C)C)c5c4)n3)nc2)CC1 + Cc1nc(NC(=O)N2CCCC2C(N)=O)sc1-c1ccnc(C(C)(C)C(F)(F)F)c1", "> 1 µM"],
  ["CC(C)NCC(C(=O)N1CCN(c2ncnc3c2C(C)CC3O)CC1)c1ccc(Cl)cc1 (stereo not given) + CC(Nc1ncnc2nc[nH]c12)c1cc2cccc(Cl)c2c(=O)n1-c1ccccc1", "1.01 µM"],
  ["C#Cc1c(F)ccc2cc(O)cc(-c3ncc4c(N5CC6CCC(C5)N6)nc(OCC56CCCN5CC(F)C6)nc4c3F)c12 (stereo not given) + Cc1nc(NC(=O)N2CCCC2C(N)=O)sc1-c1ccnc(C(C)(C)C(F)(F)F)c1", "7.36 µM"],
  ["C=CC(=O)N1CCN(c2nc(=O)n(-c3c(C)ccnc3C(C)C)c3nc(-c4c(O)cccc4F)c(F)cc23)C(C)C1 (stereo not given) + CC(Nc1ccc2c(c1)OCCn1cc(N3C(=O)OCC3C(F)F)nc1-2)C(N)=O", "> 10 µM"]
]}

---

System: MDA-MB-468 spheroids with HUVEC/MSC, viability
Test method notes: Anticancer human tumor MDA-MB-468 cell line growth inhibition [PI3K];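 also: spheroids exposed to agents for seven days before readout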
Condition description: curve of first compound; second compound 0.0316 µM
Readout kind: IC50

{"columns": ["Molecule", "Target or system", "Readout kind", "Result"],
 "data": [
  ["CCN1CCN(Cc2ccc(Nc3ncc(F)c(-c4cc(F)c5nc(C)n(C(C)C)c5c4)n3)nc2)CC1 + Cc1nc(NC(=O)N2CCCC2C(N)=O)sc1-c1ccnc(C(C)(C)C(F)(F)F)c1", "MDA-MB-468 spheroids with HUVEC/MSC, viability", "IC50", "> 1000 nM"],
  ["CNC(=O)c1ccc(N2C(=S)N(c3ccc(C#N)c(C(F)(F)F)c3)C(=O)C2(C)C)cc1F + Cc1nc(NC(=O)N2CCCC2C(N)=O)sc1-c1ccnc(C(C)(C)C(F)(F)F)c1", "MDA-MB-468 spheroids with HUVEC/MSC, viability", "IC50", "> 10000 nM"],
  ["CC1(C)CCC(Nc2ncc(C(F)(F)F)c(-c3c[nH]c4c(P(C)(C)=O)c(C#N)ccc34)n2)CN1 (stereo not drawn) + COc1c(OCCCN2CCOCC2)ccc2c3n(c(=NC(=O)c4cnc(N)nc4)nc12)CCN3", "MDA-MB-468 spheroids with HUVEC/MSC, viability", "IC50", "< 31.6 nM"]
]}

---

Test system: MDA-MB-468 spheroids with HUVEC/MSC, viability
Test method notes: Anticancer human tumor MDA-MB-468 cell line growth inhibition [PI3K];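 also: spheroids exposed to agents for seven days before readout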;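 as to viability, T/C: 100% = DMSO vehicle control viability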
Condition description: second compound 0.00316 µM; first compound 0.316 µM; stronger effect = lower value
With a cut-off of 80%, any viability, T/C strictly below it is called Criterion met; any viability, T/C meeting it or above is called Criterion not met.

{"columns": ["Compound", "Category label"],
 "data": [
  ["CCCS(=O)(=O)Nc1ccc(F)c(C(=O)c2c[nH]c3ncc(-c4ccc(Cl)cc4)cc23)c1F + CC(Nc1ccc2c(c1)OCCn1cc(N3C(=O)OCC3C(F)F)nc1-2)C(N)=O", "Criterion not met"],
  ["CC1(C)CCC(CN2CCN(c3ccc(C(=O)NS(=O)(=O)c4ccc(NCC5CCOCC5)c([N+](=O)[O-])c4)c(Oc4cnc5[nH]ccc5c4)c3)CC2)=C(c2ccc(Cl)cc2)C1 + COc1c(OCCCN2CCOCC2)ccc2c3n(c(=NC(=O)c4cnc(N)nc4)nc12)CCN3", "Criterion not met"],
  ["CC(Cn1ccc(-c2ccc(C#N)c(Cl)c2)n1)NC(=O)c1cc(C(C)O)[nH]n1 (stereo not given) + CC(Nc1ccc2c(c1)OCCn1cc(N3C(=O)OCC3C(F)F)nc1-2)C(N)=O", "Criterion not met"],
  ["Cn1ncc(Cl)c1-c1cc(C(=O)NC(CN)Cc2cccc(F)c2)sc1Cl (stereo not given) + COc1c(OCCCN2CCOCC2)ccc2c3n(c(=NC(=O)c4cnc(N)nc4)nc12)CCN3", "Criterion met"]
]}

Entry source: PubChem BioAssay AID1963960
